Data credit: patent US7364741

# target.or.system: HLA-A2.1 molecules expressed by 174CEM.T2 cells (human)
# experiment.description: T2 HLA-A2.1 stabilisation, flow cytometry (BB7.2), peptide 200 ug/ml
metric.name: MF (mean fluorescence)
I only need the number, thanks.

See these solved cases before continuing.
Prompt line: Which MF (mean fluorescence) value belongs to TIHDIILEC (modifications not checked) [… (residues 29-37 of HPV16 protein E6)] ?
Response line: 184

Prompt line: Which MF (mean fluorescence) value belongs to FAFKDLFVV (modifications not checked) [… (residues 47-55 of HPV18 protein E6)] ?
Response line: 463

Prompt line: Which MF (mean fluorescence) value belongs to QLFLNTLSF (modifications not checked) [… (residues 88-96 of HPV18 protein E7)] ?
Response line: 258

Prompt line: Which MF (mean fluorescence) value belongs to KTVLELTEV (modifications not checked) [… (residues 36-44 of HPV18 protein E6)] ?
Response line: 468

Prompt line: Which MF (mean fluorescence) value belongs to MLDLQPETT (modifications not checked) [… (residues 12-20 of HPV16 protein E7)] ?
Response line: 218

Prompt line: Which MF (mean fluorescence) value belongs to SLQDIEITC (modifications not checked) [… (residues 24-32 of HPV18 protein E6)] ?
Response line: 244

Prompt line: Which MF (mean fluorescence) value belongs to DTLEKLTNT (modifications not checked) [… (residues 88-96 of HPV18 protein E6)] ?
Response line: 238

For the next question, use this binder.
Prompt line: Which MF (mean fluorescence) value belongs to LSFVCPWCA (modifications not checked) [… (residues 94-102 of HPV18 protein E7)] ?
Response line: 262
